Biological target: cPLA2 crudely purified from the cytoplasm fraction of U937 (Homo sapiens, UniProt P47712)
Construct: cPLA2 crudely purified from the cytoplasm fraction of U937; endogenous in cells; host or cells: U937 cells (cytoplasm fraction, crude purification)
Sequence (P47712 whole entry): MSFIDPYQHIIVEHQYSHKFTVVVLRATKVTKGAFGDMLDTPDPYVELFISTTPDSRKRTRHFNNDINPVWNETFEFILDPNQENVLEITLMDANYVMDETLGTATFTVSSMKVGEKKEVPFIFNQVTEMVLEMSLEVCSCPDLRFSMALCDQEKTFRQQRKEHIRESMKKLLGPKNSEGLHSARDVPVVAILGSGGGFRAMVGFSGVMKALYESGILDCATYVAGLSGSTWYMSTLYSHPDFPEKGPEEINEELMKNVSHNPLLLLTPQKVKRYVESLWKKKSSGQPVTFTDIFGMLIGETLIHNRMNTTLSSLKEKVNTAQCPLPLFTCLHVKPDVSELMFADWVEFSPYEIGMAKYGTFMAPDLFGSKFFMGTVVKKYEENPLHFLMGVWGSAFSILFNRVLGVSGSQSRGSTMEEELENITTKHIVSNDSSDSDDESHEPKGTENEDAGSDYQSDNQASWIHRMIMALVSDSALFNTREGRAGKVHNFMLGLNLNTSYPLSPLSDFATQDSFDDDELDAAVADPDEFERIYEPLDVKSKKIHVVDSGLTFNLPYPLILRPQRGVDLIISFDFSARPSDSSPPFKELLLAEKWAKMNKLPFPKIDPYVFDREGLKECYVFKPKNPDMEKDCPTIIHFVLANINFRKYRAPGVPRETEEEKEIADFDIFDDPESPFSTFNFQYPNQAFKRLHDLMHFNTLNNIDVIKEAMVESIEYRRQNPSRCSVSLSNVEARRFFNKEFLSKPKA
Experiment: Measurement of cPLA2 inhibitory activity (release of [14C]-arachidonic acid from phosphatidyl choline liposome)
Assay type: biochemical
Conditions: cPLA2 from U937 cytoplasm fraction, [14C]arachidonyl-phosphatidyl choline liposome, 37° C., 60 minutes; read-out: cPLA2 inhibitory activity, 50% inhibiting concentration IC50
Structures can show the parent of a compound that is named as a salt.
Parameter: pIC50. Scope: all listed entries.
Hey, just a heads up that pIC50 is the negative log base 10 of the concentration in molar.

Would you please look over these solved cases?
| Compound | Readout number |
| --- | --- |
| CN(C)c1cccc(-n2cc(CCc3ccccc3)c3cc(CCC(=O)O)ccc32)c1 [Example 179] | 6.74 |
| O=C(CCc1ccc2c(c1)c(CCc1ccccc1)cn2-c1ccc(Oc2ccccc2)cc1)C(F)(F)F [Example 330] | 6.14 |
| O=C(O)CCc1ccc2c(c1)c(CCc1ccccc1)cn2-c1ccc(C(F)(F)F)cc1 [Example 207] | 7.19 |
| O=C(O)CCc1ccc2c(c1)c(CCc1ccccc1)cn2-c1ccc([N+](=O)[O-])cn1 [Example 134, hydrochloride] | 6.68 |
| O=C(O)CCc1ccc2c(c1)c(CC1(c3ccccc3)CC1)cn2-c1ccccc1 [Example 41] | 6.20 |
| O=C(O)CCc1ccc2c(c1)c(CCc1ccccc1)cn2-c1ccc(OC(F)F)cc1 [Example 189] | 7.37 |
| COc1cccc(-n2cc(CCc3ccccc3)c3cc(CCC(=O)O)ccc32)c1 [Example 107] | 6.71 |
| O=C(O)CCc1ccc2c(c1)c(CCc1ccccc1)cn2-c1cccc(O)c1 [Example 157] | 6.73 |
| O=C(O)CCc1ccc2c(c1)c(CCc1ccccc1)cn2-c1ccc(OCCO)cc1 [Example 229] | 7.85 |
| O=C(O)CCc1ccc2c(c1)c(CCc1ccccc1)cn2-c1ccc(C(=O)N2CCOCC2)cc1 [Example 312] | 6.39 |

Please turn your attention to the following entry.
Problem: # lookup: pIC50 of O=C(O)CCc1ccc2c(c1)c(CCc1ccccc1)cn2-c1ccc(OCCN2CCCC2)cc1 [Example 222]
Solution: 7.31

----------
Molecular target: cPLA2 crudely purified from the cytoplasm fraction of U937 (Homo sapiens, UniProt P47712)
Construct: cPLA2 crudely purified from the cytoplasm fraction of U937; endogenous in cells; host or cells: U937 cells (cytoplasm fraction, crude purification)
Test: Measurement of cPLA2 inhibitory activity (release of [14C]-arachidonic acid from phosphatidyl choline liposome)
Type: biochemical
Conditions: cPLA2 from U937 cytoplasm fraction, [14C]arachidonyl-phosphatidyl choline liposome, 37° C., 60 minutes; read-out: cPLA2 inhibitory activity, 50% inhibiting concentration IC50
Measured parameter: log10 IC50 (log10 of the value in nM)
Friendly reminder: values = log10 of IC50, unit nM.

Here's what some known entries look like.
| Compound | log10 IC50 |
| --- | --- |
| Nc1ccccc1-n1cc(CCc2ccccc2)c2cc(CCC(=O)O)ccc21 [Example 151] | 2.27 |
| COc1ccc(-n2cc(CCc3ccccc3)c3cc(/C=C/C(=O)O)ccc32)cc1 [Example 74] | 2.20 |
| CS(=O)(=O)c1ccc(-n2cc(CCc3ccccc3)c3cc(CCC(=O)O)ccc32)cc1 [Example 326] | 2.69 |

Please turn your attention to the following entry.
Problem: Given the entry O=C(O)CCc1ccc2c(c1)c(CCc1ccccc1)cn2-c1ccc(COc2ccc(F)cc2)cc1 [Example 291] , what log10 IC50 was observed with cPLA2 crudely purified from the cytoplasm fraction of U937 (Homo sapiens, UniProt P47712)?
Solution: 1.92

----------
Target: cPLA2 crudely purified from the cytoplasm fraction of U937 (Homo sapiens, UniProt P47712)
Construct: cPLA2 crudely purified from the cytoplasm fraction of U937; endogenous in cells; host or cells: U937 cells (cytoplasm fraction, crude purification)
Assay: Measurement of cPLA2 inhibitory activity (release of [14C]-arachidonic acid from phosphatidyl choline liposome)
Assay type: biochemical
Settings: cPLA2 from U937 cytoplasm fraction, [14C]arachidonyl-phosphatidyl choline liposome, 37° C., 60 minutes; read-out: cPLA2 inhibitory activity, 50% inhibiting concentration IC50
Where a name gives a salt, the structure may show the parent alone.
# pIC50 annotations
Please note pIC50 is a logarithmic value: minus log10 of concentration in mol/L. Answer with that number alone.

| Molecule | Test target | Readout number |
| --- | --- | --- |
| COc1ccc(CCc2cn(-c3ccccc3)c3ccc(CCC(=O)O)cc23)cc1 | cPLA2 crudely purified from the cytoplasm fraction of U937 (Homo sapiens, UniProt P47712) | 6.14 |

Problem: Which value of pIC50 has been reported for O=C(O)CCc1ccc2c(c1)c(CCc1ccccn1)cn2-c1cc(F)c(O)c(F)c1 [Example 298, hydrochloride] in the records?
Solution: 6.03

Problem: // same read-out, input: CC(C)(C)C(=O)Nc1ccc(-n2cc(CCc3ccccc3)c3cc(CCC(=O)O)ccc32)cc1
Solution: 6.95

Problem: Then this molecule: O=C(O)CCc1ccc2c(c1)c(CCc1ccccc1)cn2-c1cccc([N+](=O)[O-])c1
Solution: 6.81

Problem: Entry O=C(O)CCc1ccc2c(c1)c(CCc1ccccc1)cn2-c1ccc(CO)cc1 [Example 220] please
Solution: 6.84

----------
Molecular target: cPLA2 crudely purified from the cytoplasm fraction of U937 (Homo sapiens)
Construct: cPLA2 crudely purified from the cytoplasm fraction of U937; endogenous in cells; host or cells: U937 cells (cytoplasm fraction, crude purification)
Experiment: Measurement of cPLA2 inhibitory activity (release of [14C]-arachidonic acid from phosphatidyl choline liposome)
Type: biochemical
Conditions: cPLA2 from U937 cytoplasm fraction, [14C]arachidonyl-phosphatidyl choline liposome, 37° C., 60 minutes; read-out: cPLA2 inhibitory activity, 50% inhibiting concentration IC50
Counter-ions that a name gives are not always drawn.
Measured parameter: pIC50
The read-out pIC50 is expressed as -log10 of concentration in moles per litre.

In the examples that follow, each entry is paired with its recorded pIC50.
| Compound | Test target | pIC50 |
| --- | --- | --- |
| O=C(O)/C=C/c1ccc2c(c1)c(C(=O)C1(c3ccccc3)CC1)cn2-c1ccccc1 [Example 39] | cPLA2 crudely purified from the cytoplasm fraction of U937 (Homo sapiens) | 4.97 |
| O=C(O)CCc1ccc2c(c1)c(CCc1ccccc1)cn2-c1ccc(CN2CCOCC2)cc1 [Example 308] | cPLA2 crudely purified from the cytoplasm fraction of U937 (Homo sapiens) | 6.83 |
| CCCOc1ccc(-n2cc(CCc3ccccc3)c3cc(CCC(=O)O)ccc32)cc1 [Example 119] | cPLA2 crudely purified from the cytoplasm fraction of U937 (Homo sapiens) | 8.15 |
| CCOc1cccc(-n2cc(CCc3ccccc3)c3cc(CCC(=O)O)ccc32)c1 [Example 159] | cPLA2 crudely purified from the cytoplasm fraction of U937 (Homo sapiens) | 6.29 |

Please turn your attention to the following entry.
Problem: Please give the measured pIC50 for this compound: O=C(O)CCc1ccc2c(c1)c(CCc1ccccn1)cn2-c1ccc(OC(F)F)cc1 [Example 277, hydrochloride]
Solution: 7.01

----------
Each item that follows carries a reported IC50.
Test system: PGE2 production in mouse peritoneal exudate cells
Assay: LPS-induced PGE2 production system using mouse peritoneal exudate cells
Assay type: cell-based
Settings: LPS 10 μg/ml, 6 hours
Method: For evaluation of the PGE2 production inhibiting activity, the lipopolysaccharide (LPS)-induced PGE2 production system using mouse peritoneal exudate cells with reference to the method of Kim et al. (see Kim, Y K et al., Biol Pharm Bull 25: 472, 2002) was used. That is, 2 ml of thioglycolate solution (made by Sigma, Brewer's Thioglycorate medium) per mice were intraperitoneally administered to 8-week old female C3H/HeN mice (Charles River Japan). […]

| Compound | IC50 |
| --- | --- |
| COCc1ccc(-n2cc(CCc3ccccc3)c3cc(CCC(=O)O)ccc32)cc1 [Example 217] | 1700 nM |
| O=C(O)CCc1ccc2c(c1)c(CCc1ccccc1)cn2-c1ccc(OCCO)cc1 [Example 229] | 800 nM |
| O=C(O)CCc1ccc2c(c1)c(CCc1ccccc1)cn2-c1ccc(O)cc1 [Example 126] | 540 nM |
| Cc1c(CCc2ccccc2)c2cc(CCC(=O)O)ccc2n1-c1ccccc1 [Example 48] | 2490 nM |
| O=C(O)CCc1ccc2c(c1)c(CCc1ccccc1)cn2-c1ccccc1 [Example 17] | 1320 nM |

Now turn to the next compound.
Problem: Quick check: IC50 on PGE2 production in mouse peritoneal exudate cells, item O=C(O)CCc1ccc2c(c1)c(CCc1ccccc1)cn2-c1ccc(Oc2ccccc2)cc1 [Example 231] ?
Solution: 500 nM

----------
Target: cPLA2 crudely purified from the cytoplasm fraction of U937 (Homo sapiens)
Construct: cPLA2 crudely purified from the cytoplasm fraction of U937; endogenous in cells; host or cells: U937 cells (cytoplasm fraction, crude purification)
Assay: Measurement of cPLA2 inhibitory activity (release of [14C]-arachidonic acid from phosphatidyl choline liposome)
Assay type: biochemical
Settings: cPLA2 from U937 cytoplasm fraction, [14C]arachidonyl-phosphatidyl choline liposome, 37° C., 60 minutes; read-out: cPLA2 inhibitory activity, 50% inhibiting concentration IC50
pIC50: −log10 of the molar value. Counter-ions that a name gives are not always drawn.
Classes are defined on pIC50 with ranges Low: < 6; Mid: ≥ 6 and < 7; High: ≥ 7

| Molecule | Category |
| --- | --- |
| O=C(O)CCc1ccc2c(c1)c(CCc1ccccc1)cn2-c1ccc(Oc2ccccc2)cc1 [Example 231] | High |

Problem: Returns: class label. Input: O=C(O)CCc1ccc2c(c1)c(CCc1ccccc1)cn2-c1cc(F)c(O)c(F)c1 [Example 289]
Solution: Mid

Problem: O=C(O)/C=C/c1ccc2c(c1)c(CCc1ccccc1)cn2-c1ccc(O)cc1 [Example 239] ?
Solution: High

Problem: And the next one, O=C(CCc1ccc2c(c1)c(CCc1ccccc1)cn2-c1ccccc1)NO [Example 21] ?
Solution: Low

Problem: Would you mind doing O=C(O)CCc1ccc2c(c1)c(CCc1ccccc1)cn2-c1cccnc1 [Example 128, hydrochloride] as well?
Solution: Mid

Problem: Note, next up: COCCc1ccc(-n2cc(CCc3ccccc3)c3cc(CCC(=O)O)ccc32)cc1 [Example 201]
Solution: Mid

Problem: What about this molecule? O=C(O)CCc1ccc2c(c1)c(Cc1ccc3ccccc3c1)cn2-c1ccccc1 [Example 54]
Solution: Low

Problem: # iterate: O=C(O)CCc1ccc2c(c1)c(CCc1ccccc1)cn2-c1cccc(C(=O)O)c1 [Example 177]
Solution: Low

Problem: Next molecule up: O=C(O)CCc1ccc2c(c1)c(CCc1ccccc1)cn2-c1ccc(OCC2CCCCO2)cc1 (centres unmarked) [Example 243]
Solution: High

Problem: Proceed to CN(C)S(=O)(=O)c1ccc(-n2cc(CCc3ccccc3)c3cc(CCC(=O)O)ccc32)cc1 [Example 318]
Solution: Mid

Problem: Can you check N#Cc1ccc(-n2cc(CCc3ccccc3)c3cc(CCC(=O)O)ccc32)cc1 [Example 81] next?
Solution: High

Problem: Another molecule to check: O=C(O)CCc1ccc2c(c1)c(CCCc1ccccc1)cn2-c1ccc(OCc2ccccc2)cc1 [Example 339]
Solution: Mid

Source of measurements: patent US8293781B2
